Source listed as PubChem BioAssay (NCI).

Record form. Attribute: growth. Fill in for each entry.
Test system: OVCAR-5 ovarian
Test: NCI-60 one-dose screen, 48 h (100 = growth as untreated, 0 = no growth, -100 = all killed)
Conditions: 10 µM unless noted
This is part of a sample that, as a whole, favours compounds with a hit. Of some 83,000 tested, about 20% had one in any assay.
Report the value in % with no unit label.

Give the reported growth for `CCOCCc1c(O)nc(SC)[nH]c1=O` (system: OVCAR-5 ovarian).
87.3

Give the reported growth for CCOc1ccc(C2N(c3cc(OC)c(OC)c(OC)c3)C(=O)C2(F)F)cc1 (stereo not given) (system: OVCAR-5 ovarian).
66.5

Give the reported growth for `CC(=O)O[C@@H]1C[C@]2(C)[C@H]3[C@H](O)C[C@@H]4C5=CC(C)(C)CC[C@]5(C)CC[C@@]4(C)[C@]3(C)CC[C@H]2C(C)(C)[C@H]1O` (system: OVCAR-5 ovarian).
106

Give the reported growth for `O=C(CCc1nnco1)c1nc2ccc([N+](=O)[O-])cc2[nH]1` (system: OVCAR-5 ovarian).
108

Give the reported growth for `COc1ccc(Sc2[nH]c(C(C)=O)c3ccccc23)cc1` (system: OVCAR-5 ovarian).
94.1

====

Tested on: K-562 leukemia
Test: NCI-60 one-dose screen, 48 h (100 = growth as untreated, 0 = no growth, -100 = all killed)
Details: 10 µM unless noted
The panel holds about 83,000 compounds, 20% with a hit somewhere; the sample as a whole holds those more often.
Threshold check on growth: at or above 60% gives fulfilled, strictly below gives not fulfilled.

Does growth meet or surpass 60% for `O=C(/C(=C/c1ccc([N+](=O)[O-])cc1)SCc1ccccc1)c1ccc(Cl)cc1` ?
not fulfilled

Does growth meet or surpass 60% for Cc1nc2sc(C(=O)Nc3cccc4ccccc34)c(N)c2cc1C(C)O (centres undefined) ?
not fulfilled

Does growth meet or surpass 60% for `COc1cc(NCC(=O)Nc2cc(Nc3ccc(C)cc3)ncn2)c(Cl)c(OC)c1Cl` ?
fulfilled

Does growth meet or surpass 60% for `CN1CCN(S(=O)(=O)O[C@@H]2C(=O)N(c3cc4c5ccccc5ccc4c4ccccc34)[C@H]2c2ccc(F)cn2)CC1` ?
fulfilled

Does growth meet or surpass 60% for CN(C)C(CNc1oc(-c2cccc3ccccc23)nc1C#N)c1ccco1 (centres undefined) ?
fulfilled

Does growth meet or surpass 60% for `COc1cc(/C=C/C(=O)/C=C/c2cc3ccc(Cl)cc3[nH]c2=O)ccc1O` ?
not fulfilled

Does growth meet or surpass 60% for O=C1NN(c2ccccc2)C(c2ccc3c(c2)OCO3)N2CCC[C@@H]12 (some centres undefined) ?
fulfilled

Does growth meet or surpass 60% for `CC1(C)CC[C@]2(c3nnc(-c4ccncc4)o3)CC[C@]3(C)C(=CC[C@@H]4[C@@]5(C)CCC(=O)C(C)(C)[C@@H]5CC[C@]43C)[C@@H]2C1` ?
fulfilled

Does growth meet or surpass 60% for CC(C)Cc1cc(CNC(=O)C2[C@H]3CN(C(=O)c4ccccc4)C[C@@H]23)nn1-c1ccccc1 (some centres undefined) ?
fulfilled

====

Tested on: HCC-2998 colon
Experiment: NCI-60 one-dose screen, 48 h (100 = growth as untreated, 0 = no growth, -100 = all killed)
Conditions: 10 µM unless noted
Compounds without any hit were thinned out: in the full panel of roughly 83,000, 20% have a hit.
With a cut-off of 90%, any growth strictly below it is called t; any growth meeting it or above is called f.

Consider `S=C(Nc1ccc(Cl)cc1)c1ccccn1` . Does its growth lie strictly below 90%?
f

Consider `Cc1nccc2c3ccc(OCc4cn(-c5ccc(Cl)cc5)nn4)cc3n(CC(C)C)c12` . Does its growth lie strictly below 90%?
t

Consider `NC(N)=NC(N)=Nc1cc2ccccc2c2ccccc12` . Does its growth lie strictly below 90%?
t

Consider CCCS(=O)(=O)Nc1ccc(F)c(C(=O)c2c[nH]c3ncc(-c4ccc(OCCCC5CCCCN5)nc4)cc23)c1F (stereo not given) . Does its growth lie strictly below 90%?
f

Consider `CCSc1nc(Cl)c(C#N)c(-c2ccc(F)cc2)n1` . Does its growth lie strictly below 90%?
f

Consider `Nc1n[nH]c2cccc(C#Cc3cccc(NC(=O)c4cc(N5CCOCC5)cc(C(F)(F)F)c4)c3)c12` . Does its growth lie strictly below 90%?
t

Consider `Oc1ccc(CNNc2ccnc3c(O)cccc23)c2cccnc12` . Does its growth lie strictly below 90%?
t

Consider `COc1cc2nc3c(=O)n(-c4ccc(C#N)cc4)cnn3c(=O)c2cc1OC` . Does its growth lie strictly below 90%?
f
